# Test system: OVCAR-4
# test-name: NCI tumour cell line growth inhibition, 48 h
The source made the active and inactive calls. No stated cut-off is given here; in the data, active = GI50 up to about 1.1 µM and inactive = higher.
quantity-kind: GI50

Could you tell me which GI50 is on file for "O=C(O)C1=CNC(C(=O)O)=NN1" ?
> 100 µM (inactive)

Try the compound "COc1cccc(CCNc2c(C#N)c3n(c4ccccc4[n+]3C)c3ncccc23)c1"
2.04 µM (inactive)

Try the compound "CCOC(C/N=c1/nc(N(C)C)ss1)OCC"
16.6 µM (inactive)

Try the compound "Clc1ccc(Cc2nc3ccccc3o2)cc1"
48.2 µM (inactive)

Try the compound "CCOC(=O)/C=C\c1c(Cl)n(-c2ccccc2)c(=O)n(-c2ccccc2)c1=O"
30 µM (inactive)

Try the compound CC12C=CC(=O)C=C1CCC1C3CCC(O)(C(=O)CO)C3(C)CC(O)C12F (stereo unspecified)
> 100 µM (inactive)

###

# Test system: NCI-H522
# test-name: NCI tumour cell line growth inhibition, 48 h
The source made the active and inactive calls. No stated cut-off is given here; in the data, active = GI50 up to about 1.1 µM and inactive = higher.
Pick one and only one: 1 = active, -1 = inactive

Tell me the assay call for "Fc1ccc2c(c1)SC1=Nc3sc4cc(F)ccc4[n+]3CN12" please.
-1

Try the compound O=C(O)C(CO)NC(=O)n1c2ccccc2c2ccccc21 (centres undefined)
-1

Try the compound "CCOC(=O)c1nc2cc(C(F)(F)F)ccc2nc1Nc1ccc(OC)cc1"
-1

Try the compound Fc1cccc(F)c1C1SCc2nc3cc(Cl)c(Cl)cc3n21 (centres undefined)
-1

Try the compound CO[C@H]1[C@@H](O)[C@@H](C)O[C@@H](O[C@H]2CC[C@@]3(C)[C@H](CC[C@@H]4[C@@H]3CC[C@]3(C)[C@@H](C5=CC(=O)OC5)CC[C@]43O)C2)[C@@H]1O [ODOROSIDE H]
1

Try the compound CC(=O)NCCC1CN(C(=O)/C=C/I)c2ccccc21 (centres undefined)
-1

Try the compound "O=c1ssc2ncccc12"
-1

Try the compound "COc1cccc(CSCC(=O)O)c1"
-1

Try the compound "Cc1nc(O)nc(N/N=C/c2c3ccccc3c(Cl)c3ccccc23)c1C(=O)Nc1ccc(Cl)cc1"
-1

###

I'd be grateful if you could share measured GI50 for these entries.
# Test system: IGROV-1
# test-name: NCI tumour cell line growth inhibition, 48 h
The source made the active and inactive calls. No stated cut-off is given here; in the data, active = GI50 up to about 1.1 µM and inactive = higher.

Could you tell me which GI50 is on file for "Cc1ccc(S(=O)(=O)Nn2c(S)c(C#N)c(-c3ccc([N+](=O)[O-])cc3)c(C#N)c2=O)cc1" ?
19.4 µM (inactive)

Try the compound "O=[N+]([O-])c1ccccc1S(=O)(=O)c1cc(O)cc2c1NCCC2"
17.1 µM (inactive)

Try the compound CCCCCCCCCCCCCCCCOCC(CP(=O)([O-])OCC[n+]1ccccc1)OC (configuration not stated)
3.84 µM (inactive)

Try the compound "Nc1ncc(Sc2ccccc2C(=O)O)s1"
> 100 µM (inactive)

Try the compound "CC(=O)NC1=C(N)C(=O)c2ccccc2C1=O"
> 100 µM (inactive)

Try the compound N=C(N)NCCCCCCC(=O)NC(O)C(=O)NCCCCNCCCN (configuration not stated)
665 µM (inactive)

Try the compound O=C1c2ccccc2C(=O)C2C3c4ccccc4C(c4ccccc43)C12 (configuration not stated)
22.9 µM (inactive)

Try the compound CCOC(=O)C1=C(N2CCCC2)C(=O)C(C(=O)OCC)C1 (configuration not stated)
> 100 µM (inactive)

Try the compound O=C(NC(CCCCN1C(=O)c2ccccc2C1=O)P(=O)(Oc1ccccc1)Oc1ccccc1)OCc1ccccc1 (configuration not stated)
> 100 µM (inactive)

Try the compound "O=C1C=CC2(C=C1)CCC(=O)O2"
10.8 µM (inactive)

Try the compound O=C(O)C(O)c1ccc(F)cc1 (configuration not stated)
> 100 µM (inactive)

Try the compound CC(O)c1ccc[n+](Cc2ccccc2)c1 (configuration not stated)
> 400 µM (inactive)

Try the compound CC(=O)NC1C(OC(C)C(=O)NC(C)C(=O)NC(CCC(=O)NCCCCCNc2ccc([N+](=O)[O-])c3[nH]c4ccccc4c(=O)c23)C(N)=O)C(O)C(CO)OC1(C)OCc1ccccc1 (configuration not stated)
64.1 µM (inactive)

Try the compound "CCOC(=O)c1c(N=C(S)Nc2ccccc2)sc2c1CCN(C)C2"
> 100 µM (inactive)

Try the compound C/C=C/C#CC#C/C=C/C=C/C(O)CCO (configuration not stated)
> 23.1 µM (inactive)

Try the compound "O=c1[nH][nH]c(=O)[nH]1"
> 100 µM (inactive)

Try the compound "COCc1nc2c(OC)c(-c3nc4ccc(N5CCN(C)CC5)cc4[nH]3)cc(OC)c2[nH]1"
97.9 µM (inactive)

Try the compound "Cn1ccnc1Sc1ccc(/C=N/NC(=O)c2ccccc2[N+](=O)[O-])cc1[N+](=O)[O-]"
37.4 µM (inactive)

Try the compound "COc1cc2c([C@@H](OC(=O)c3ccccc3)c3ccc4c(c3)OCO4)nccc2c(OC)c1OC"
> 100 µM (inactive)

Try the compound "CC1=C(C(=O)Nc2ccccc2C)C(c2ccco2)C(C(=O)Nc2ccccc2C)=C(C)N1C"
> 100 µM (inactive)

Try the compound "CC(C)(CC(=O)Nc1ccccc1)C(=O)O"
> 100 µM (inactive)

Try the compound "COc1cccc(CSCC(=O)O)c1"
> 100 µM (inactive)

###

# Test system: M14
# test-name: NCI tumour cell line growth inhibition, 48 h
Calls of active or inactive are those of the source. Rule as the data show it: active = GI50 up to about 1.1 µM and inactive = higher.
Pick one and only one: 1 = active, -1 = inactive

Tell me the assay call for "O=C(O)C/N=C(\C(=N\CC(=O)O)c1ccccc1)c1ccccc1" please.
-1

Try the compound "O=C(c1ccc(Cl)cc1)N(C(=S)N1CCN(c2ccccn2)CC1)c1ccccc1"
-1

Try the compound "Cc1nc(O)nc(N/N=C/c2c3ccccc3c(Cl)c3ccccc23)c1C(=O)Nc1ccc(Cl)cc1"
-1

Try the compound "Cc1ccc(-c2cc(=O)c3cc(C)c(C)c(C(=O)O)c3o2)cc1"
-1

Try the compound "Clc1ccc(Cc2nc3ccccc3o2)cc1"
-1

Try the compound "Cc1c(O)c(=O)ccn1CCc1c[nH]c2ccccc12"
-1

Try the compound "CCOC(=O)c1[nH]c(Br)c(-c2ccc(OC)c(OC)c2)c1Br"
1

Try the compound "COC(=O)/C=C\C(C#N)(C#N)/N=C/c1cccs1"
-1

Try the compound NC(=O)N/N=C(/c1nc2ccc([N+](=O)[O-])cc2nc1O)C(O)c1ccco1 (stereo unspecified)
-1

Try the compound "COC(=O)CCCc1ccc2c(c1)CC1(C2)Cc2cc3c(cc2C1)CCCC3"
-1

Try the compound "FC(F)(F)c1ccc(Cc2nc3cc4ccccc4cc3[nH]2)cc1"
-1

Try the compound "N#CCOc1ccc(/C=C/C(=O)c2ccc(Cl)cc2)cc1"
-1

Try the compound CC(=O)Nc1ccc2c3c(cc(O)c2c1)N(C(=O)CCCCC(=O)Nc1ccc2c4c(cc(O)c2c1)N(C(=O)OC(C)(C)C)CC4CCl)CC3CCl (stereo unspecified)
-1

Try the compound "CNC(=O)Oc1ccc(C(=S)Nc2ccc(Br)cc2)cc1"
-1

Try the compound CCCCCOP(=O)(OCCCCC)C(NC(C)=O)(C(=O)OCC)C(F)(F)F (stereo unspecified)
-1

Try the compound "OCCCC(O)(c1ccccc1)c1ccccc1"
-1

Try the compound CCN1CCC(O)(c2ccc(Cl)c(Cl)c2)C(C(=O)c2ccc(Cl)c(Cl)c2)C1 (stereo unspecified)
-1

Try the compound "COc1ccc(Cl)cc1NC(=O)O/N=C(\Cl)C(C)C"
-1

Try the compound Cc1ccccc1N(CCC#N)C1=NN(C(=O)CC(=O)Nc2ccccc2)C(c2ccccc2)C1 (stereo unspecified)
-1

Try the compound "CCOC(=O)c1c(N=C(S)Nc2ccccc2)sc2c1CCN(C)C2"
-1

Try the compound "COc1cc2c(c(OC)c1OC)-c1ccc(SC)c(=O)cc1[C@@H](NCc1ccc([N+](=O)[O-])cc1)CC2"
1

###

# Tested on: MOLT-4
# test-name: NCI tumour cell line growth inhibition, 48 h
Active and inactive are the calls of the source. Rule as the data show it: active = GI50 up to about 1.1 µM and inactive = higher.
Pick one and only one: 1 = active, 0 = inactive

Tell me the assay call for "COC(=O)/C=C\C(C#N)(C#N)/N=C/c1cccs1" please.
1

Try the compound CC12CCC(=O)N1c1cccnc1N2 (centres undefined)
0

Try the compound O=C1C2CCCCC2C(=O)N1n1c(Cc2ccc(Cl)cc2)n[nH]c1=O (centres undefined)
0

Try the compound "CNC(SC)=C1C(=O)OC(C)(C)OC1=O"
0

###

# System: SN12C
# test-name: NCI tumour cell line growth inhibition, 48 h
Activity calls are given as the source filed them. Cut-off read from the data, not from the text of the source: active = GI50 up to about 1.1 µM and inactive = higher.
I'd be grateful if you could share measured GI50 for these entries.

Could you tell me which GI50 is on file for CC12CCC(=O)N1c1cccnc1N2 (stereo not given) ?
> 100 µM (inactive)

Try the molecule "COc1ccc(C2=NN(c3ccccc3)C[N+](c3ccc(C)cc3)=N2)cc1"
66.5 µM (inactive)

Try the molecule COC(=O)c1ccccc1C1=C([N+](=O)[O-])C(c2cccc(Br)c2)C(C#N)=C(N)O1 (stereo not given)
38 µM (inactive)

Try the molecule "CCOC(=O)C(O)(C(=O)OCC)c1cc(C(C)(C)C)c(O)c(C(C)(C)C)c1"
43.4 µM (inactive)

Try the molecule CC1=CC(=O)C2=C(C)CCC3C(C)C(=O)OC3C12 (stereo not given)
> 100 µM (inactive)
